System: RIOK3;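 also: KINOMEscan kinase panel screen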
Conditions: concentration: 1 μM, replicates: in singlicate; n = 1
READOUT KIND: %Inh (%)
Just the number please, in %, no unit attached.

q: Any idea what %Inh was measured for Cc1ccccc1COc1cc(-n2cnc3cc(Cl)ccc32)sc1C(N)=O ?
a: 13

q: Any idea what %Inh was measured for COc1ccc(CNC(=O)NC2CCN(c3ccnc(Nc4ccc(F)cc4)n3)C2)cc1 (stereo not drawn) ?
a: 0

q: Any idea what %Inh was measured for Nc1nc(N)c2nc(-c3ccccc3)[nH]c2n1 ?
a: 8

q: Any idea what %Inh was measured for COc1cc2ncn(-c3cc(OCc4ccncc4)c(C(N)=O)s3)c2cc1OC ?
a: 12

q: Any idea what %Inh was measured for COc1cc2ncn(-c3cc(OCCCc4ccccc4)c(C(N)=O)s3)c2cc1OC ?
a: 12

q: Any idea what %Inh was measured for COc1cc(Nc2ccnc3ccc(C(F)(F)F)cc23)cc(OC)c1OC ?
a: 0

q: Any idea what %Inh was measured for Cc1ccc(Oc2ccc(Nc3ncnc4cc[nH]c34)cc2C)cn1 ?
a: 24

q: Any idea what %Inh was measured for CCC(=O)c1c(-c2ccccc2)c2cc(Cl)ccc2c(=O)n1Cc1cc(S(C)(=O)=O)n(CCC(C)(C)O)n1 ?
a: 0

q: Any idea what %Inh was measured for COc1cc(Nc2nccc(N3CCC(NC(=O)C(C)c4ccc(Cl)cc4)C3)n2)cc(OC)c1OC (stereo not drawn) ?
a: 54
